# System: HI-HeLa cells
# protocol_details: Cytotoxicity in mock-infected HI-HeLa cells (antirhinoviral assay, XTT)
# Type: cell-based
# condition_context: mock-infected HI-HeLa cells; two days; XTT; read-out: CC50
Could you please report measured CC50 for the items listed next?

Use the examples below as a reference point.
{"molecule": "CCOC(=O)/C=C/[C@H](CCC(N)=O)NC(=O)[C@H](Cc1ccccc1)NS(=O)(=O)c1ccccc1 [Compound 34]", "result": "> 100 µM"}
{"molecule": "CCOC(=O)/C=C/[C@H](CCC(N)=O)NC(=O)[C@H](Cc1ccc(OP(=O)(O)O)cc1)NC(=O)[C@H](CC(C)C)NC(=O)OCc1ccccc1 [Compound 105]", "result": "> 320 µM"}

Working through the 6 molecules below one at a time, give CC50 for each.
1. CCOC(=O)/C=C/[C@H](CCC(N)=O)NC(=O)[C@H](Cc1ccc(C)cc1)NC(=O)[C@@H](NC(=O)SC1CCCC1)C(C)(C)C [Compound 174]
2. CC(C)C[C@H](NC(=O)OCc1ccccc1)C(=O)N[C@@H](Cc1ccccc1)C(=O)N[C@H](/C=C/C(=O)N1CCc2cc(Cl)ccc21)CCC(N)=O [Compound 92]
3. CC(C)C[C@H](NC(=O)OCc1ccccc1)C(=O)N[C@@H](Cc1ccccc1)C(=O)N[C@H](/C=C/C(=O)c1ccc(C#N)cc1)CCC(N)=O [Compound 80]
4. CC(C)C[C@H](NC(=O)OCc1ccccc1)C(=O)N[C@@H](Cc1ccccc1)C(=O)N[C@H](/C=C/C(=O)N1CCc2ccc(S(C)(=O)=O)cc21)CCC(N)=O [Compound 97]
5. CCOC(=O)/C=C/[C@H](CCC(N)=O)NC(=O)[C@H](Cc1ccc(F)cc1)NC(=O)[C@H](CC(C)C)NC(=O)OCc1ccccc1 [Compound 35]
6. CCOC(=O)/C=C/[C@H](CCC(N)=O)NC(=O)[C@H](Cc1ccc(F)cc1)NC(=O)c1cc2c(OC)cccc2[nH]1 [Compound 27]

**Result**
1: > 100 µM; 2: 56 µM; 3: > 320 µM; 4: > 320 µM; 5: > 320 µM; 6: 160 µM

Working through the 8 molecules below one at a time, give CC50 for each.
1. CCOC(=O)/C=C/[C@H](CCC(N)=O)NC(=O)[C@H](Cc1ccc(OC(C)=O)cc1)NC(=O)[C@H](CC(C)C)NC(=O)OCc1ccccc1 [Compound 100]
2. CSc1cccc2c1N(C(=O)/C=C/[C@H](CCC(N)=O)NC(=O)[C@H](Cc1ccccc1)NC(=O)[C@H](CC(C)C)NC(=O)OCc1ccccc1)CC2 [Compound 96]
3. Cc1cc(CCCCCOc2c(Cl)cc(C3=NCCO3)cc2Cl)on1 [WIN 54954, reference compound]
4. CC(C)C[C@H](NC(=O)OCc1ccccc1)C(=O)N[C@@H](Cc1ccccc1)C(=O)N[C@H](/C=C/C(=O)N1CCCCO1)CCC(N)=O [Compound 84]
5. CC(C)C[C@H](NC(=O)OCc1ccccc1)C(=O)N[C@@H](Cc1ccccc1)C(=O)N[C@H](/C=C/C=O)CCC(N)=O [Compound 81]
6. CC(C)C[C@H](NC(=O)OCc1ccccc1)C(=O)N[C@@H](Cc1ccccc1)C(=O)N[C@H](/C=C/c1ccno1)CCC(N)=O [Compound 150]
7. CCOC(=O)/C=C/[C@H](CCC(N)=O)NC(=O)[C@H](Cc1ccccc1)NC(=O)[C@H](C)NC(=O)OCc1ccccc1 [Compound 101]
8. CCOC(=O)/C=C/[C@H](CCC(N)=O)NC(=O)[C@H](CC1CCCCC1)NC(=O)[C@H](CC(C)C)NC(=O)OCc1ccccc1 [Compound 135]

**Result**
> 320 µM
100 µM
> 63 µM
> 320 µM
112 µM
> 320 µM
> 320 µM
> 320 µM

* * *

# protocol_details: Cytotoxicity in mock-infected HI-HeLa cells (antirhinoviral assay, XTT)
# Type: cell-based
# condition_context: human; mock-infected HI-HeLa cells; two days; XTT; read-out: CC50
# Method: HI-HeLa cells were infected with HRV-14 at a multiplicity of infection (m.o.i.) of 0.13 (virus particles/cell) or mock-infected with medium only. […] Two days later, XTT/PMS was added to test plates and the amount of formazan produced was quantified spectrophotometrically at 450/650 nm. […] The therapeutic index (TI) was calculated by dividing the CC50 by the EC50. […]
Could you please report measured CC50 at 2 days for the items listed next?

Use the examples below as a reference point.
{"compound": "CCOC(=O)/C=C/[C@H](CCC(N)=O)NC(=O)[C@H](Cc1ccccc1)NC(=O)[C@H](CCC(=O)O)NC(=O)OCc1ccccc1 [Compound 154]", "attribute_measured": "CC50 at 2 days", "result": "> 320 µM"}
{"compound": "CC(C)C[C@H](NC(=O)OCc1ccccc1)C(=O)N[C@@H](Cc1ccccc1)C(=O)N[C@H](/C=C/CCl)CCC(N)=O [Compound 74]", "attribute_measured": "CC50 at 2 days", "result": "250 µM"}

**Query** Report CC50 at 2 days, nothing else, for this compound: CCOC(=O)/C=C/[C@H](CCC(N)=O)NC(=O)[C@H](Cc1ccccc1)NC(=O)[C@H](CC(C)C)NC(=O)SC [Compound 119]
**Result** > 320 µM

* * *

# experimental_system: Recombinant Rhinovirus 3C protease (RVP) serotype 2 (Human rhinovirus 2, UniProt P04936)
# Construct: Recombinant Rhinovirus 3C proteases from serotypes 14, 16, 2 or 89; made in house
# Sequence (P04936 1508-1690): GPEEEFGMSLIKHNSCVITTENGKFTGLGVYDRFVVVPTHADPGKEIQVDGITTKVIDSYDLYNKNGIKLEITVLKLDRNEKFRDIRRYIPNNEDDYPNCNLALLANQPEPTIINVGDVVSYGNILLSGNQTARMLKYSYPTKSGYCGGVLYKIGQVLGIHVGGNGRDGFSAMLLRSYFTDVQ
# protocol_details: Inhibition of Rhinovirus Protease (fluorescence resonance energy transfer assay), serotype 2
# Assay type: biochemical, human rhinovirus (HRV)
# condition_context: pH 7.6, progress curves in enzyme start experiments, read-out: kobs/I
attribute_measured: kinact/KI
Put your answer as a value accompanied by its unit after it.

{"compound": "CC(=O)/C=C/[C@H](CCC(N)=O)NC(=O)[C@H](Cc1ccccc1)NC(=O)[C@H](CC(C)C)NC(=O)OCc1ccccc1", "experimental_system": "Recombinant Rhinovirus 3C protease (RVP) serotype 2 (Human rhinovirus 2, UniProt P04936)", "kinact/KI": "2400 M⁻¹ s⁻¹"}
{"compound": "CCOC(=O)/C=C/[C@H](CCC(N)=O)NC(=O)[C@H](Cc1ccccc1)NC(=O)[C@H](Cc1ccccc1)NC(=O)OCc1ccccc1", "experimental_system": "Recombinant Rhinovirus 3C protease (RVP) serotype 2 (Human rhinovirus 2, UniProt P04936)", "kinact/KI": "9700 M⁻¹ s⁻¹"}
{"compound": "CCOC(=O)/C=C/[C@H](CCC(N)=O)NC(=O)[C@H](Cc1ccc(CO)cc1)NC(=O)[C@H](CC(C)C)NC(=O)OCc1ccccc1", "experimental_system": "Recombinant Rhinovirus 3C protease (RVP) serotype 2 (Human rhinovirus 2, UniProt P04936)", "kinact/KI": "1970 M⁻¹ s⁻¹"}

**Query** Provide measured kinact/KI on Recombinant Rhinovirus 3C protease (RVP) serotype 2 (Human rhinovirus 2, UniProt P04936) for CCOC(=O)C=CC(CCC(N)=O)NC(=O)C(Cc1ccc(C)cc1)NC(=O)C(CC(C)C)NC(=O)OCc1ccccc1 (stereo not shown) please.
**Result** 1390 M⁻¹ s⁻¹

* * *

# experimental_system: Recombinant Rhinovirus 3C protease (RVP) serotype 2 (Human rhinovirus 2)
# Construct: Recombinant Rhinovirus 3C proteases from serotypes 14, 16, 2 or 89; made in house
# protocol_details: Inhibition of Rhinovirus Protease (fluorescence resonance energy transfer assay), serotype 2
# Format: biochemical, human rhinovirus (HRV)
# condition_context: progress curves in enzyme start experiments
Could you please report measured kobs/I for the items listed next?

Use the examples below as a reference point.
{"compound": "CCOC(=O)/C=C/[C@H](CCC(N)=O)NC(=O)[C@H](Cc1ccccc1)NC(=O)[C@H](CSc1ccccc1)NC(=O)SC1CCCC1", "experimental_system": "Recombinant Rhinovirus 3C protease (RVP) serotype 2 (Human rhinovirus 2)", "kobs/I": "113,000 M-1 sec-1"}
{"compound": "CCOC(=O)C=CC(CCC(N)=O)NC(=O)C(Cc1ccccc1)NC(=O)C(NC(=O)OCc1ccccc1)C(C)CC (stereo not drawn)", "experimental_system": "Recombinant Rhinovirus 3C protease (RVP) serotype 2 (Human rhinovirus 2)", "kobs/I": "2,000 M-1 sec-1"}

Kindly review the next compound as well.
**Query** Provide measured kobs/I on Recombinant Rhinovirus 3C protease (RVP) serotype 2 (Human rhinovirus 2) for CCOC(=O)/C=C/[C@H](CCC(N)=O)NC(=O)[C@H](Cc1ccccc1)NC(=O)[C@H](CO)NC(=O)OCc1ccccc1 please.
**Result** 2,840 M-1 sec-1

* * *

# Tested on: HI-HeLa cells
# protocol_details: Cytotoxicity in mock-infected HI-HeLa cells (anticoxsackieviral assay, XTT)
# Assay type: cell-based
# condition_context: mock-infected HI-HeLa cells; one day; XTT; read-out: CC50
attribute_measured: CC50

Use the examples below as a reference point.
{"compound": "CC(C)C[C@H](NC(=O)OCc1ccccc1)C(=O)N[C@@H](Cc1ccccc1)C(=O)N[C@H](/C=C/c1ccccn1)CCC(N)=O", "CC50": "> 100 µM"}
{"compound": "CC(C)C[C@H](NC(=O)OCc1ccccc1)C(=O)N[C@@H](Cc1ccccc1)C(=O)N[C@H](/C=C/C(=O)c1ccccc1)CCC(N)=O", "CC50": "10 µM"}
{"compound": "COC(=O)/C=C/[C@H](CCC(N)=O)NC(=O)[C@H](Cc1ccccc1)NC(=O)[C@H](CC(C)C)NC(=O)OCc1ccccc1", "CC50": "> 320 µM"}
{"compound": "Cc1cc(CCCCCOc2c(Cl)cc(C3=NCCO3)cc2Cl)on1 [WIN 54954, reference compound]", "CC50": "> 100 µM"}

Kindly review the next compound as well.
**Query** Report CC50, nothing else, for this compound: CCOC(=O)/C=C/[C@H](CCC(N)=O)NC(=O)[C@H](Cc1ccc(F)cc1)NC(=O)c1cc2c(OC)cccc2[nH]1
**Result** 103 µM
